System: Leishmania major
MEASUREMENT DESCRIPTION: Resistant index, ratio of EC50 for tafenoquine-resistant promastigotes of Leishmania major R4 to EC50 for promastigotes of Leishmania major MHOM/JL/80/Friedlin
Type: functional
ENDPOINT: Ratio EC50
Reply: number alone, nothing else.

Task: Report its Ratio EC50 with Leishmania major as the test system: `COc1cccc2c1C(=O)c1c(O)c3c(c(O)c1C2=O)C[C@@](O)(C(C)=O)C[C@@H]3O[C@H]1C[C@H](N)[C@H](O)[C@H](C)O1`
Result: 1.7

Task: Enter Ratio EC50 (test system Leishmania major) for CCN(CC)CCCC(C)Nc1ccnc2cc(Cl)ccc12 (stereo not given)
Result: 1.3

Task: Give Ratio EC50 for this entry on Leishmania major: CC(=O)N1CCN(c2ccc(OCC3COC(Cn4ccnc4)(c4ccc(Cl)cc4Cl)O3)cc2)CC1 (stereo not given)
Result: 1.4

Task: Give the observed Ratio EC50 of `NC[C@@H]1O[C@H](O[C@H]2[C@@H](O)[C@H](O[C@@H]3[C@@H](O)[C@H](N)C[C@H](N)[C@H]3O[C@H]3O[C@H](CO)[C@@H](O)[C@H](O)[C@H]3N)O[C@@H]2CO)[C@H](N)[C@@H](O)[C@@H]1O` for Leishmania major.
Result: 1

Task: Write down measured Ratio EC50 (Leishmania major) for this compound. OC(c1cc(C(F)(F)F)nc2c(C(F)(F)F)cccc12)C1CCCCN1 (stereo not given)
Result: 1.1

---

Give measured Ratio EC50 for each item. Keep answers brief.
System: Leishmania major
MEASUREMENT DESCRIPTION: Resistant index, ratio of EC50 for tafenoquine-resistant promastigotes of Leishmania major R4 to EC50 for promastigotes of Leishmania major MHOM/JL/80/Friedlin
Type: functional
# answer = number (no unit)

Task: Specify measured Ratio EC50 for `C[C@@H]1[C@H](O)[C@@H](C)/C=C/C=C/C=C/C=C/C=C/C=C/C=C/[C@H](O[C@@H]2O[C@H](C)[C@@H](O)[C@H](N)[C@@H]2O)C[C@@H]2O[C@](O)(C[C@@H](O)C[C@@H](O)[C@H](O)CC[C@@H](O)C[C@@H](O)CC(=O)O[C@H]1C)C[C@H](O)[C@H]2C(=O)O` .
Result: 1.7

Task: Identify measured Ratio EC50 associated with `CCCCCCCCCCCCCCCCOP(=O)([O-])OCC[N+](C)(C)C`
Result: 1.5

Task: Note down Ratio EC50 recorded for `N=C(N)c1ccc(OCCCCCOc2ccc(C(=N)N)cc2)cc1`
Result: 1.8

Task: Please supply the value of reported Ratio EC50 for the item COc1cc(C)c2c(Oc3cccc(C(F)(F)F)c3)c(OC)cc(NC(C)CCCN)c2n1 (configuration not stated)
Result: 2.5

Task: Note Ratio EC50 for the compound shown: `CCN(CC)CCCCCCNc1cc(OC)cc2c(C)ccnc12.Cl.Cl`
Result: 2

Task: Name the recorded Ratio EC50 of the item COc1cc(NC(C)CCCN)c2ncccc2c1 (configuration not stated) in your answer.
Result: 1.9

Task: For the compound `C=C[C@H]1CN2CC[C@H]1C[C@H]2[C@H](O)c1ccnc2ccc(OC)cc12` , report Ratio EC50.
Result: 1
